# Target: UniProt O35678
# Sequence (O35678 whole entry): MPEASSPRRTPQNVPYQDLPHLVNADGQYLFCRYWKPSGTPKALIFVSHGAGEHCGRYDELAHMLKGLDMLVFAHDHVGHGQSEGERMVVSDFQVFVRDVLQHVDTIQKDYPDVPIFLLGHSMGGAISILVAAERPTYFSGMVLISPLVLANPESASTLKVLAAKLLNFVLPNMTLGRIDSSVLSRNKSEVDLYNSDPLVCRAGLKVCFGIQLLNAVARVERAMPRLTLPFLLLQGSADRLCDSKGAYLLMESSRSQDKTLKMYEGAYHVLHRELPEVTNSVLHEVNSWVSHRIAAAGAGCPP
# Test description: In vitro competitive activity-based protein profiling, mouse proteomes (brain membrane fraction or cell lysates)
# Type: biochemical
# Assay setup: mouse proteome, read-out: MAGL % inh. 1 μM (mouse)
# Experimental: In Vitro Competitive Activity-Based Protein Profiling. Proteomes (mouse brain membrane fraction or cell lysates for mouse assays; human prefrontal cortex or PC3 cell membrane fractions for human assays) (50 μL, 1.0 or 2.0 mg/mL total protein concentration) were preincubated with varying concentrations of inhibitors at 37° C. […] Following gel imaging, serine hydrolase activity was determined by measuring fluorescent intensity of gel bands corresponding to MAGL and FAAH using ImageJ 1.43u software.
Outcome measure: inhibition at 1 µM

Please review the entries below; each comes with its answer.
INSERT INTO results (compound, outcome_measure, observed) VALUES
  ('CN(Cc1ccc(C(F)(F)F)nc1N1CCCC1)C1(C)CCN(C(=O)n2ccc(NS(C)(=O)=O)n2)CC1', 'inhibition at 1 µM', '> 75%'),
  ('C[C@H]1CN(C(=O)n2ccc(NS(C)(=O)=O)n2)CCN1Cc1ccc(Cl)c(N2CC[C@H](F)C2)c1', 'inhibition at 1 µM', '> 75%'),
  ('C[C@H](c1ccc(Cl)c(N2CCC(F)CC2)c1)N1CCN(C(=O)n2ccc(NS(C)(=O)=O)n2)CC1', 'inhibition at 1 µM', '> 75%'),
  ('CS(=O)(=O)Nc1ccn(C(=O)N2CCN(Cc3cc4c(Cl)cccc4s3)CC2)n1', 'inhibition at 1 µM', '> 75%'),
  ('CC(=O)Nc1ccn(C(=O)N2CCC3(CCN(Cc4cc(C(F)(F)F)cc(C5(C(=O)O)CCCC5)c4)C3)CC2)n1', 'inhibition at 1 µM', '> 75%');

In: Entry C[C@@H]1CN(C(=O)n2ccc(NS(C)(=O)=O)n2)CCN1Cc1ccc(Cl)c(N2CC3COCC3C2)c1 (stereo partly shown) needs its inhibition at 1 µM filled in; supply it.
Out: > 75%

In: In one line, give reported inhibition at 1 µM of the entry CN(Cc1cc(Cl)ccc1C(F)(F)F)[C@H]1C[C@@H]2CN(C(=O)n3ccc(NS(C)(=O)=O)n3)C[C@@H]2C1 .
Out: > 75%

---

Reported IC50 values for the following molecules.
# Target: FAAH (Homo sapiens (Human))
# Sequence (O00519 whole entry): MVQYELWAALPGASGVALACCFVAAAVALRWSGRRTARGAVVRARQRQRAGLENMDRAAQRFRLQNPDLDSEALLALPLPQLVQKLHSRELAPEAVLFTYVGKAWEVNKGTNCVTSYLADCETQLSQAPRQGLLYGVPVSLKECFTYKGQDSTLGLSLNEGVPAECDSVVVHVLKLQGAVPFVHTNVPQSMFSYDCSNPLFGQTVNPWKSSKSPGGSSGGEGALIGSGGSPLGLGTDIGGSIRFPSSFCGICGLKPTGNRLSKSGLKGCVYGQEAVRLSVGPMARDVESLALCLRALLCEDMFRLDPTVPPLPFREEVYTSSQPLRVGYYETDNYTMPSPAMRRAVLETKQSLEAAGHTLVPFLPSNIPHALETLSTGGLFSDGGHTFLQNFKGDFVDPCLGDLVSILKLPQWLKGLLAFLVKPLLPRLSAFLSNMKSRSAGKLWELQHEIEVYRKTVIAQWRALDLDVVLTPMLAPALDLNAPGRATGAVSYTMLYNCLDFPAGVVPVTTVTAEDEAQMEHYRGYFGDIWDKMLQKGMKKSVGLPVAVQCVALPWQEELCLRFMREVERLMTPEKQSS
# Test description: In vitro competitive activity-based protein profiling, human proteomes (prefrontal cortex or PC3 cell membrane fractions)
# Format: biochemical
# Assay setup: human proteome

Example results:
INSERT INTO assay_data (molecule, observed) VALUES
  ('CC(=O)Nc1ccn(C(=O)N2CCC3(CCCN3C(=O)c3ccc(Cl)c(C4CC4)c3)CC2)n1 [Example 20]', '1 to 10 µM'),
  ('CC(=O)Nc1ccn(C(=O)N2CCC3(CCCN3Cc3cc4cc(Cl)c(Cl)cc4[nH]3)CC2)n1 [Example 43]', '1 to 10 µM'),
  ('CC(=O)Nc1ccn(C(=O)N2CC3CN(Cc4cc(Cl)cc(N5CCCC5)c4)CC3C2)n1 (stereo not shown) [Example 172]', '0.1 to 1 µM'),
  ('CC(=O)Nc1ccn(C(=O)N2CC3CN(Cc4cccc(Oc5ccccc5)c4)CC3C2)n1 (stereo not shown) [Example 173]', '0.1 to 1 µM'),
  ('CS(=O)(=O)Nc1ccn(C(=O)N2CCN(Cc3cccc(Oc4ccc(Cl)cc4)c3)CC2)n1 [Example 149]', '0.1 to 1 µM');

In: Look up and report measured IC50 for this entry: CS(=O)(=O)Nc1ccn(C(=O)N2CCC3(CCN(Cc4ccc(C(F)(F)F)cc4N4C5CCC4COC5)C3)CC2)n1 [Example 74]
Out: 1 to 10 µM

In: Assign IC50 to the following record: CC(=O)Nc1ccn(C(=O)N2CCC3(CCN(C(=O)c4cc5ccc(C(F)(F)F)cc5s4)C3)CC2)n1 [Example 154]
Out: 1 to 10 µM
